B1: MYOZ1 (parent)
chain: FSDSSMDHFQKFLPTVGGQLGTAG

# Variants of: B1
# assay: protein stability index of a GFP-peptide fusion (GPS, HEK-293T) (PSI 1-6); higher = more stable;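 also: lentivirally expressed fusions sorted by FACS into six bins by GFP to DsRed ratio, PSI derived from sequencing read proportions per bin multiplied by bin number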
# condition_info: c terminus: a fixed tail appended
Returns one of class 1 or class 0; class 1 when protein stability index is >= 2.

Recorded results for 4 variants are shown here.
H8C = class 0
V16W = class 1
H8K = class 1
G21C = class 0

Reported protein stability index reaches at least 2 for K11Q ?
class 1

Reported protein stability index reaches at least 2 for T15L ?
class 0

Reported protein stability index reaches at least 2 for T15K ?
class 1

Reported protein stability index reaches at least 2 for A23D ?
class 1

Reported protein stability index reaches at least 2 for H8G ?
class 1
